B1: EPB41L3 (parent)
chain: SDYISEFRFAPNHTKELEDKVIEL

Variants of: B1
Experiment: protein stability index of a GFP-peptide fusion (GPS, HEK-293T) (PSI 1-6); higher = more stable;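 further: lentivirally expressed fusions sorted by FACS into six bins by GFP to DsRed ratio, PSI derived from sequencing read proportions per bin multiplied by bin number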
Settings: c terminus: a fixed tail appended
MEASUREMENT KIND: protein stability index
Format: numeric value only, no unit, no commentary.

Please review the entries below; each comes with its answer.
D2M | 2.25
F7V | 4.46
F9L | 4.09

Query :: Which protein stability index value belongs to `P11M` ?
Result :: 2.65

Query :: Proceed to `L24H`
Result :: 2.65

Query :: Follow-up entry: `S5H`
Result :: 2.15

Query :: What about `K15A` ?
Result :: 1.9

Query :: Also `H13F` ?
Result :: 1.92

Query :: What would you report for `H13S` ?
Result :: 2.06

Query :: Same lookup for `F7W` , please.
Result :: 2.42

Query :: `F9A` , same question.
Result :: 4.79

Query :: Same read-out for `R8L` ?
Result :: 3.24

Query :: Request: `V21S`
Result :: 2.05
